# experiment_summary: Active ingredient assay on storage, SCB239-12 (Table 3)
# Format: physicochemical
# applied_conditions: 2 month storage, T/C
Give label 1 when the value for Assay (% w/w) is at least 10 % w/w. Give label 0 when it is less.

compound: CCCCC(CC)COC(=O)COc1ccc(Cl)cc1C (centres unmarked)
category_label: label 1
--
compound: CCCCCCCC(=O)Oc1c(Br)cc(C#N)cc1Br [Bromoxynil, Bromoxynil Octanoate]
category_label: label 1
--
compound: CCCCCCC(C)OC(=O)COc1nc(F)c(Cl)c(N)c1Cl (centres unmarked)
category_label: label 1
--
compound: CCCCCC(C)OC(=O)COc1ccc(Cl)c2cccnc12 (centres unmarked)
category_label: label 0
--
compound: COc1nn(C(=O)[N-]S(=O)(=O)c2ccccc2OC(F)(F)F)c(=O)n1C.[Na+] [Flucarbazone, Flucarbazone Sodium]
category_label: label 0
